Values compiled from patent EP0964864B1.

# test.target: FGF-1 (flg) receptor tyrosine kinase
# protocol.text: FGF receptor tyrosine kinase assay
property.name: IC50 (µM)
Write it as a number; the unit µM goes unstated.

Input: Please report the recorded IC50 for CCNc1nc(Nc2ccccc2)ncc1C=CC(=O)OCC [Example 17] .
Output: 4.5

----------
# test.target: PDGF-β receptor tyrosine kinase
# protocol.text: PDGF receptor tyrosine kinase assay
property.name: pIC50
Kindly note that pIC50 refers to -log10 of the concentration in mol/L and answer with the value alone.

Input: Value lookup for pIC50; key = `CCNc1nc(Nc2ccccc2)ncc1C=CC(=O)OCC`
Output: 5.43
